Where do the numbers come from? From patent US20250332300A1.

target: mouse HER2 (23-653) (Mus musculus, UniProt P70424); assay: TR-FRET competition assay for peptide potency, mouse HER2; assay type: binding; set-up: mouse HER2 (23-653) using a Cy5 labeled peptide as a probe; made in house; host or cells: mammalian cells; settings: TR-FRET competition with Cy5 labeled peptide probe, 0.1 nM mouse HER2, 24 h incubation; read-out: moHER2 TR-FRET IC50
Structures can show the parent of a compound that is named as a salt. Starred links: 1 amine or outer side, 2 acyl side, 3 side chain; linkers in the order of their positions; H or OH if unused. Positions of bridges follow the written chain, without caps; N, C: chain ends. Non-standard residues stand in square brackets, D forms with d. Residues, ends and D or L forms follow the SMILES beside them. Nle(4-yne,6-yl) = O=C([C@H](CC#CC[*:3])N[*:1])[*:2]; Trp(5-OH) = N[C@@H](Cc1c[nH]c2ccc(O)cc12)C(=O)O; NMePhe(4-F) = CN[C@@H](Cc1ccc(F)cc1)C(=O)O; NMehPhe = CN[C@@H](CCc1ccccc1)C(=O)O; Aad = N[C@@H](CCCC(=O)O)C(=O)O; Gly(cPr) = N[C@H](C(=O)O)C1CC1; Ahp(2) = CCCCC[C@H](N)C(=O)O; NMeK = CN[C@@H](CCCCN)C(=O)O; NMeDap = CN[C@@H](CN)C(=O)O; NMeC = CN[C@@H](CS)C(=O)O; NMeS = CN[C@@H](CO)C(=O)O
reportedMetric: IC50

Solved cases (4 shown):
[[record]]
molecule = "CC(=O)NCCCC[C@H]1C(=O)N[C@@H](Cc2c[nH]c3ccc(O)cc23)C(=O)N[C@H](Cc2c[nH]c3ccccc23)C(=O)N[C@@H](C2CC2)C(=O)N(C)[C@H](C(=O)N(C)[C@@H](Cc2ccc(F)cc2)C(=O)N[C@@H](CCCCNC(=O)CN2CCN(CC(=O)O)CCN(CC(=O)O)CCN(CC(=O)O)CC2)C(N)=O)CNC(=O)CCC[C@H](NC(C)=O)C(=O)N[C@@H](Cc2ccc(O)cc2)C(=O)N[C@@H](CO)C(=O)N(C)[C@@H](CCc2ccccc2)C(=O)N1C [Example B9]"
reportedmetric = "IC50"
endpointresult = "> 1000 nM"

[[record]]
molecule = "CC(=O)N[C@H]1CCC(=O)NC[C@@H](C(=O)N(C)[C@@H](Cc2ccc(F)cc2)C(=O)N2CCC[C@H]2C(N)=O)N(C)C(=O)[C@H](C2CC2)NC(=O)[C@H](Cc2c[nH]c3ccccc23)NC(=O)[C@H](Cc2c[nH]c3ccc(O)cc23)NC(=O)[C@H](CO)N(C)C(=O)[C@H](CCc2ccccc2)N(C)C(=O)[C@H](CO)NC(=O)[C@H](Cc2ccc(O)cc2)NC1=O [Example A30]"
reportedmetric = "IC50"
endpointresult = "67 nM"

[[record]]
molecule = "CCCCC[C@@H]1NC(=O)[C@H](Cc2c[nH]c3ccc(O)cc23)NC(=O)[C@H](CCCCNC(C)=O)N(C)C(=O)[C@H](CCc2ccccc2)N(C)C(=O)[C@H](CO)NC(=O)[C@H](Cc2ccc(O)cc2)NC(=O)[C@@H](NC(C)=O)CCCC(=O)NC[C@@H](C(=O)N(C)[C@@H](Cc2ccc(F)cc2)C(N)=O)N(C)C(=O)[C@H](C2CC2)NC1=O [Example A17] (Ac-[Aad]YS[NMehPhe][NMeK](Ac)[Trp(5-OH)][Ahp(2)][Gly(cPr)][NMeDap][NMePhe(4-F)]-NH2; lactam 1-9)"
reportedmetric = "IC50"
endpointresult = "> 1000 nM"

[[record]]
molecule = "CN1C(=O)[C@H](CO)NC(=O)[C@H](Cc2ccc(O)cc2)NC(=O)[C@@H](N)CC#CCSC[C@@H](C(=O)N(C)[C@@H](Cc2ccc(F)cc2)C(N)=O)N(C)C(=O)[C@H](C2CC2)NC(=O)[C@H](Cc2c[nH]c3ccccc23)NC(=O)[C@H](Cc2c[nH]c3ccc(O)cc23)NC(=O)[C@H](CO)N(C)C(=O)[C@@H]1CCc1ccccc1 [Example A52, TFA salt] (H-[Nle(4-yne,6-yl)]YS[NMehPhe][NMeS][Trp(5-OH)]W[Gly(cPr)][NMeC][NMePhe(4-F)]-NH2; thioether 1-9)"
reportedmetric = "IC50"
endpointresult = "> 1000 nM"


Next molecule, IC50 to be filled in.
The recorded IC50 for CC(=O)NCCCC[C@H]1C(=O)N[C@@H](Cc2c[nH]c3ccc(O)cc23)C(=O)N[C@@H](Cc2c[nH]c3ccccc23)C(=O)N[C@@H](C2CC2)C(=O)N(C)[C@H](C(=O)N(C)[C@@H](Cc2ccc(F)cc2)C(=O)N[C@@H](CCCCNC(=O)CCC(C(=O)O)N2CCN(CC(=O)O)CCN(CC(=O)O)CC2)C(N)=O)CNC(=O)CCC[C@H](NC(C)=O)C(=O)N[C@@H](Cc2ccc(O)cc2)C(=O)N[C@@H](CO)C(=O)N(C)[C@@H](CCc2ccccc2)C(=O)N1C (some centres unmarked) [Example B13] is < 0.1 nM

###

target: human HER2 (23-652) (Homo sapiens); assay: TR-FRET competition assay for peptide potency, human HER2; format: binding; parameters: towards human HER2 (23-652) and mouse HER2 (23-653); made in house; host or cells: mammalian cells; settings: read-out: huHER2 TR-FRET IC50
Starred links: 1 amine or outer side, 2 acyl side, 3 side chain; linkers in the order of their positions; H or OH if unused. Positions of bridges follow the written chain, without caps; N, C: chain ends. Non-standard residues stand in square brackets, D forms with d. Residues, ends and D or L forms follow the SMILES beside them. Trp(5-OH) = N[C@@H](Cc1c[nH]c2ccc(O)cc12)C(=O)O; NMePhe(4-F) = CN[C@@H](Cc1ccc(F)cc1)C(=O)O; X2 = O=C([C@H](Cc1ccc(O)nc1)N[*:1])[*:2]; NMehPhe = CN[C@@H](CCc1ccccc1)C(=O)O; Gly(cPr) = N[C@H](C(=O)O)C1CC1; NMeDap = CN[C@@H](CN)C(=O)O; NMeS = CN[C@@H](CO)C(=O)O
reportedMetric: IC50
Kindly write the number and append the unit.

The recorded IC50 for CC(=O)N[C@H]1CCC(=O)NC[C@@H](C(=O)N(C)[C@@H](Cc2ccc(F)cc2)C(N)=O)N(C)C(=O)[C@H](C2CC2)NC(=O)[C@H](Cc2c[nH]c3ccccc23)NC(=O)[C@H](Cc2c[nH]c3ccc(O)cc23)NC(=O)[C@H](CO)N(C)C(=O)[C@H](CCc2ccccc2)N(C)C(=O)[C@H](CO)NC(=O)[C@H](Cc2ccc(O)nc2)NC1=O [Example A1] (Ac-E[X2]S[NMehPhe][NMeS][Trp(5-OH)]W[Gly(cPr)][NMeDap][NMePhe(4-F)]-NH2; lactam 1-9) is 111 nM

###

target: mouse HER2 (23-653) (Mus musculus); assay: Surface plasmon resonance (SPR) for assessment of peptide affinity, mouse HER2; format: binding; design: mouse HER2 (23-653) using a Cy5 labeled peptide as a probe; made in house; settings: SPR, mouse HER2 extracellular domain, 25° C., 1:1 binding model; read-out: moHER2-SPR-ONC KD
Counter-ions that a name gives are not always drawn. Starred links: 1 amine or outer side, 2 acyl side, 3 side chain; linkers in the order of their positions; H or OH if unused. Positions of bridges follow the written chain, without caps; N, C: chain ends. Non-standard residues stand in square brackets, D forms with d. Residues, ends and D or L forms follow the SMILES beside them. Nle(4-yne,6-yl) = O=C([C@H](CC#CC[*:3])N[*:1])[*:2]; Trp(5-OH) = N[C@@H](Cc1c[nH]c2ccc(O)cc12)C(=O)O; NMePhe(4-F) = CN[C@@H](Cc1ccc(F)cc1)C(=O)O; NMehPhe = CN[C@@H](CCc1ccccc1)C(=O)O; Glutaryl = O=C(CCCC(=O)[*:2])[*:1]; Gly(cPr) = N[C@H](C(=O)O)C1CC1; NMeK = CN[C@@H](CCCCN)C(=O)O; NMeDap = CN[C@@H](CN)C(=O)O; NMeC = CN[C@@H](CS)C(=O)O; NMeS = CN[C@@H](CO)C(=O)O; Dap = NC[C@H](N)C(=O)O; X5 = O=C(C[*:2])[*:1]
reportedMetric: pKd
One number for each entry, as −log10 of the molar value.

[[record]]
molecule = "CC(=O)N[C@H]1CCCC(=O)NC[C@@H](C(=O)N(C)[C@@H](Cc2ccc(F)cc2)C(=O)N[C@@H](CCCCNC(=O)CN2CCN(CC(=O)O)CCN(CC(=O)O)CCN(CC(=O)O)CC2)C(N)=O)N(C)C(=O)[C@H](C2CC2)NC(=O)[C@H](Cc2c[nH]c3ccccc23)NC(=O)[C@H](Cc2c[nH]c3ccc(O)cc23)NC(=O)[C@H](CCCCNC(=O)CO)N(C)C(=O)[C@H](CCc2ccccc2)N(C)C(=O)[C@H](CO)NC(=O)[C@H](Cc2ccc(O)cc2)NC1=O [Example B5]"
endpointresult = 10.00

[[record]]
molecule = "CN1C(=O)[C@H](CO)NC(=O)[C@H](Cc2ccc(O)cc2)NC(=O)[C@@H](N)CC#CCSC[C@@H](C(=O)N(C)[C@@H](Cc2ccc(F)cc2)C(N)=O)N(C)C(=O)[C@H](C2CC2)NC(=O)[C@H](Cc2c[nH]c3ccccc23)NC(=O)[C@H](Cc2c[nH]c3ccc(O)cc23)NC(=O)[C@H](CO)N(C)C(=O)[C@@H]1CCc1ccccc1 [Example A52, TFA salt] (H-[Nle(4-yne,6-yl)]YS[NMehPhe][NMeS][Trp(5-OH)]W[Gly(cPr)][NMeC][NMePhe(4-F)]-NH2; thioether 1-9)"
endpointresult = 6.24

[[record]]
molecule = "CC(=O)NCCCC[C@H]1C(=O)N[C@@H](Cc2c[nH]c3ccc(O)cc23)C(=O)N[C@@H](Cc2c[nH]c3ccccc23)C(=O)N[C@@H](C2CC2)C(=O)N(C)[C@H](C(=O)N(C)[C@@H](Cc2ccc(F)cc2)C(N)=O)CNC(=O)CCCC(=O)N[C@@H](Cc2ccc(O)cc2)C(=O)N[C@@H](CO)C(=O)N(C)[C@@H](CCc2ccccc2)C(=O)N1C [Example A7] (YS[NMehPhe][NMeK](Ac)[Trp(5-OH)]W[Gly(cPr)][NMeDap][NMePhe(4-F)]-NH2; linker N-8 via Glutaryl)"
endpointresult = 7.64


The recorded pKd for CN1C(=O)[C@H](CO)NC(=O)[C@H](Cc2ccc(O)cc2)NC(=O)[C@@H](N)CNC(=O)CSC[C@@H](C(=O)N(C)[C@@H](Cc2ccc(F)cc2)C(N)=O)N(C)C(=O)[C@H](C2CC2)NC(=O)[C@H](Cc2c[nH]c3ccccc23)NC(=O)[C@H](Cc2c[nH]c3ccc(O)cc23)NC(=O)[C@H](CO)N(C)C(=O)[C@@H]1CCc1ccccc1 [Example A53, TFA salt] (H-[Dap]YS[NMehPhe][NMeS][Trp(5-OH)]W[Gly(cPr)][NMeC][NMePhe(4-F)]-NH2; linker 1-9 via X5) is 6.81
